# binding signal listing for each entry below
- Experimental system: dAsCas12a E174R (Acidaminococcus sp., UniProt U2UMQ6 1-1307, E174R;D908A;E993A;D1235A)
- Assay remarks: Spec-seq (native PAGE EMSA with sequencing of bound and unbound); 25 mM Tris-HCl pH 7.4, 150 mM KCl, 5 mM MgCl2, 10% glycerol, 1 mM DTT, 40 ng/uL salmon sperm DNA; 400 nM Cas12a, 480 nM crRNA, 50 nM library, 37 C 1 h; native PAGE at room temperature; high values mean tight binding;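 further: relative affinity from the bound to unbound sequence frequency ratio in Spec-seq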
- Particulars: protein: recombinant
Only the number, expressed in lnKA, is required.

# Binder, Observed
measured = [
    ("AAAT (dsDNA) DNA 1: GCTATCTAGTGCTCAGTACGCACTGAAATAGGAAACTTCTGGCAGGACCAGGTCATGAGATCGGAAGAGCACACGTCTGAACTCCAGTCA DNA 2: TGACTGGAGTTCAGACGTGTGCTCTTCCGATCTCATGACCTGGTCCTGCCAGAAGTTTCCTATTTCAGTGCGTACTGAGCACTAGATAGC RNA: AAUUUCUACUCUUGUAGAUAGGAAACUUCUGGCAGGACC", -8.92),
    ("ATCA (dsDNA) DNA 1: GCTATCTAGTGCTCAGTACGCACTGATCAAGGAAACTTCTGGCAGGACCAGGTCATGAGATCGGAAGAGCACACGTCTGAACTCCAGTCA DNA 2: TGACTGGAGTTCAGACGTGTGCTCTTCCGATCTCATGACCTGGTCCTGCCAGAAGTTTCCTTGATCAGTGCGTACTGAGCACTAGATAGC RNA: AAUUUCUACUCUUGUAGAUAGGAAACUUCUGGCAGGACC", -8.4),
    ("GTCT (dsDNA) DNA 1: GCTATCTAGTGCTCAGTACGCACTGGTCTAGGAAACTTCTGGCAGGACCAGGTCATGAGATCGGAAGAGCACACGTCTGAACTCCAGTCA DNA 2: TGACTGGAGTTCAGACGTGTGCTCTTCCGATCTCATGACCTGGTCCTGCCAGAAGTTTCCTAGACCAGTGCGTACTGAGCACTAGATAGC RNA: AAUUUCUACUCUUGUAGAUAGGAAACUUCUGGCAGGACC", -8.88),
    ("TTAG (dsDNA) DNA 1: GCTATCTAGTGCTCAGTACGCACTGTTAGAGGAAACTTCTGGCAGGACCAGGTCATGAGATCGGAAGAGCACACGTCTGAACTCCAGTCA DNA 2: TGACTGGAGTTCAGACGTGTGCTCTTCCGATCTCATGACCTGGTCCTGCCAGAAGTTTCCTCTAACAGTGCGTACTGAGCACTAGATAGC RNA: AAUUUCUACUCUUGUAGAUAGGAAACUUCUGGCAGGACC", -8.42),
]

Could you now look at the following binder, please?
What value of binding signal has been recorded for this entry: CATC (dsDNA) DNA 1: GCTATCTAGTGCTCAGTACGCACTGCATCAGGAAACTTCTGGCAGGACCAGGTCATGAGATCGGAAGAGCACACGTCTGAACTCCAGTCA DNA 2: TGACTGGAGTTCAGACGTGTGCTCTTCCGATCTCATGACCTGGTCCTGCCAGAAGTTTCCTGATGCAGTGCGTACTGAGCACTAGATAGC RNA: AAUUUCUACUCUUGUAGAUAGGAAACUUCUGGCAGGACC
-8.78

Reference source: paper PMC8222333
